METHOD: Thermodynamic solubility in aqueous buffer at pH 7.4 at 20 degC by HPLC
Format: physicochemical
READOUT_LABEL: solubility thermodynamic (µg/mL)
// return numeric value only (unit: µg/mL, not printed)

O=[N+]([O-])c1cn2c(n1)OC[C@@H](OCc1cnc(-c3ccc(OC(F)(F)F)cc3)nc1)C2: 1.2

Now take the following compound into account.
So, `O=[N+]([O-])c1cn2c(n1)OC[C@@H](OCc1ccc(-c3ccc(F)cc3)nc1)C2` ? Its solubility thermodynamic was 5.9

* * *

METHOD: physchem
CONDITIONS: water, pH 1
Description: Solubility of the compound in water at pH 1.0 by HPLC
READOUT_LABEL: solubility (µg/mL)
Numbers only; they are read as µg/mL.

O=[N+]([O-])c1cn2c(n1)OC[C@@H](OCc1ccc(-c3ccc(OC(F)(F)F)c(Cl)c3)nc1)C2: 39
O=[N+]([O-])c1cn2c(n1)OC[C@@H](OCc1ccc(-c3ncc(C(F)(F)F)cc3Cl)cc1)C2: 2
O=[N+]([O-])c1cn2c(n1)OC[C@@H](OCc1ccc(-c3ccc(OC(F)(F)F)cc3)nn1)C2: 31

Next compound, solubility to be filled in.
# solubility (compound: `O=[N+]([O-])c1cn2c(n1)OC[C@@H](OCc1ccc(-c3ccc(C(F)(F)F)cn3)cn1)C2` ) is 442
